Assay: Oral bioavailability in male cynomolgus monkey at 3 mg/kg by LC-MS/MS analysis
Type: ADME, organism-based, Macaca fascicularis
Details: in vivo
measured.attribute: bioavailability (%)
One number for each entry, in %.

Which bioavailability is listed for CCOC(=O)C1=C(CN2CCN3C(=O)N(CC(C)(C)C(=O)O)C[C@@H]3C2)NC(c2nccs2)=N[C@H]1c1cccc(F)c1C [LINVENCORVIR] ?
10.3

----------
Experiment: Volume of distribution at steady state in cynomolgus monkey at 2 mg/kg,iv by LC-MS/MS analysis
Assay type: ADME, organism-based, Macaca fascicularis
Settings: in vivo, read-out: Vdss
measured.attribute: Vd (L/kg)
Answers are plain numbers, in L/kg.

Which Vd is listed for `CCOC(=O)C1=C(CN2CCN3C(=O)N(CC(C)(C)C(=O)O)C[C@@H]3C2)NC(c2nccs2)=N[C@H]1c1cccc(F)c1C` ?
0.67

The measurements presented in this section are drawn from ChEMBL document CHEMBL5316357.
